These measurements were taken from patent US20060063755A1.

List of pKi values.
Target System: D2 receptors (Rattus norvegicus, UniProt P61169)
Sequence (P61169 whole entry): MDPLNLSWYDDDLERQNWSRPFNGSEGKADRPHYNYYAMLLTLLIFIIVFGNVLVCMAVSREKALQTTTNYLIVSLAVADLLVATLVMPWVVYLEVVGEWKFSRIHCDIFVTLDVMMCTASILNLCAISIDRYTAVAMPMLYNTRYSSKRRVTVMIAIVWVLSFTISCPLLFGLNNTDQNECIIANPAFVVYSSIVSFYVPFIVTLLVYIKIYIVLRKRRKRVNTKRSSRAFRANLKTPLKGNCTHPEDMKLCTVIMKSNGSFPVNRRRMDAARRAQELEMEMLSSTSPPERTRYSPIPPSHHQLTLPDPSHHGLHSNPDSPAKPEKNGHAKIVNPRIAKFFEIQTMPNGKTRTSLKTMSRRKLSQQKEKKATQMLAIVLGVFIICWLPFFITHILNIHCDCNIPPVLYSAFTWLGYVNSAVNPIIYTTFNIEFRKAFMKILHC
Test Name: Dopamine D2 binding, rat
pKi: −log10 of the molar value.

Inquiry: Fill blank: measured pKi of the molecule `CC(C)(CN1CCN(C2=Nc3ccccc3Oc3ccccc32)CC1)C(=O)O` is ____.
Reply text: < 5.00

Inquiry: Repeat with `CC(C)(CN1CCN(C2=Nc3ccccc3Oc3ccccc32)CC1)C(=O)NS(C)(=O)=O`
Reply text: < 5.00

# context switch: different molecule, same pKi
Inquiry: Fill blank: measured pKi of the molecule `CC(C)(CN1CCN(C2=Nc3ccccc3Oc3ccc(F)cc32)CC1)C(=O)O` is ____.
Reply text: 5.56
